Target: T1, PCSK9 protein inserted with biotin receiving peptide BP15 and His-tag: PCSK9-BP15-His6 (human, UniProt Q8NBP7 153-692; A8T644 31-152, biotin on the BP15 biotin receiving peptide (labeled during the expression))
T1 construct: also called WT PCSK9; PCSK9 WT
Experiment: competition ELISA, LDLR-FC coated, biotin PCSK9 + antibody
Description: The blocking ability of PCSK9 antibodies according to the present invention for the binding of LDLR-FC (produced in-house, with sequence of SEQ ID NO: 8) and PCSK9 (SEQ ID NO: 5) was tested by measuring the amount of PCSK9 binding to LDLR in the presence of the antibodies. LDLR-FC was diluted to 5 μg/ml with phosphate buffer and was added into the 96-well ELISA plate, kept at 4° C. overnight. […]
measured_metric: IC50 (µg/mL)
Express the result in µg/mL but write the number alone.

## Input Would you kindly share the measured IC50 for h011-3095 (antibody, V domains shown) VH: QVQLVQSGAEVKKPGASVKVSCKASGYTFTGYTIHWVRQAPGQGLEWMGYINPSSTYTKFNQKFKDRVTMTRDTSISTAYMELSRLRSDDTAVYYCARERIYSNYWFFDVWGQGTTVTVSS VL: DIVMTQSPSSLSASVGDRVTITCKASQNVYTAVAWYQQKPGKSPKLLIYEASNRYTGVPSRFSGSGSGTDFTLTISSLQPEDFATYFCQQYSSYPYTFGGGTKVEIK ?
## Output 0.582

## Input State the recorded IC50 for this entry: h011-3133 (antibody, V domains shown) VH: QVQLVQSGAEVKKPGASVKVSCKASGYTFTGYEIHWVRQAPGQGLEWMGYINPSATYTKFNQKFKDRVTMTRDTSISTAYMELSRLRSDDTAVYYCARERIYSNYWFFDVWGQGTTVTVSS VL: DIVMTQSPSSLSASVGDRVTITCKASQNVYTAVAWYQQKPGKSPKLLIYSASNRYTGVPSRFSGSGSGTDFTLTISSLQPEDFATYFCQQYSSYPYTFGGGTKVEIK
## Output 0.495

## Input Quick check: IC50 of h011-3093 (antibody, V domains shown) VH: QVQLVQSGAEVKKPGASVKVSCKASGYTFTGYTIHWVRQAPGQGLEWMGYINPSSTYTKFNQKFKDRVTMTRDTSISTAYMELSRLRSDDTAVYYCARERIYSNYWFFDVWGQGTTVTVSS VL: DIVMTQSPSSLSASVGDRVTITCKASQNVYTAVAWYQQKPGKSPKLLIYEMVNRYTGVPSRFSGSGSGTDFTLTISSLQPEDFATYFCQQYSSYPYTFGGGTKVEIK ?
## Output 0.706
